Origin of measurements: paper PMC9732439

Quick record of pIC50 values for bCA-II (Bos taurus, UniProt P00921).
// pIC50: -log10(molar conc.)

Example entries and their recorded answers appear below.
COc1cc(-c2cc(C(F)(F)F)cc(C(F)(F)F)c2)ccc1O[C@H](C)Cn1cc(-c2ccc(F)cc2)nn1 [Compound 9m] : 4.39
COc1cc(-c2ccc(C)cc2)ccc1O[C@H](C)Cn1cc(-c2ccc(C(F)(F)F)cc2)nn1 [Compound 9a] : 4.59
COc1cc(-c2ccccc2)ccc1O[C@H](C)Cn1cc(-c2ccc(F)cc2)nn1 [Compound 9f] : 4.05
COc1cc(-c2ccc(F)cc2)ccc1O[C@H](C)Cn1cc(-c2ccc(C(F)(F)F)cc2)nn1 [Compound 9d] : 4.54
COc1cc(-c2ccc([N+](=O)[O-])cc2)ccc1O[C@H](C)Cn1cc(-c2ccc(C(F)(F)F)cc2)nn1 [Compound 9e] : 4.75

Query :: Request: pIC50, test system bCA-II (Bos taurus, UniProt P00921), entry COc1cc(Br)ccc1O[C@H](C)Cn1cc(-c2ccccc2)nn1 [Compound 7a]
Result :: 4.67
